# test summary: inhibitors of TNFa-induced NFkB p65 translocation, primary screen, imaging, HUVEC, MLSMR starter and 10KST1 sets (AID 438);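 further: compound added about 3h40 before a 20 min TNFalpha stimulation; signal is the nuclear over cytoplasmic p65 intensity ratio per well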
# reported conditions: HUVEC TNFa-induced p65 nuclear translocation; at 2 µM, active compounds read high, 0% TNFa-plus-vehicle, 100% no-TNFa wells
value kind: inhibition (%)
Expressed in %, but write only the number.

Take a look at these entries with their results.
molecule	inhibition [%]
O=C1c2ccccc2C(=O)N1CC(O)Cn1nnc2ccccc21 (stereo unspecified)	-22.3
COc1cccc(Cn2c(-c3nonc3N)nc3ccccc32)c1	-4.8
COc1ccc(OCC(O)CN2C(=O)NC(C)(C)C2=O)cc1 (stereo unspecified)	-6.4

Field inhibition (entry "N#Cc1nc(COc2ccccc2F)oc1NCCCn1ccnc1" ) reads -4

Field inhibition (entry "COc1ccc(-n2c(=O)[nH]cc(C(=O)Nc3ccc(NC(C)=O)cc3)c2=O)cc1" ) reads 7

Field inhibition (entry "CSc1nc(N)nc(SCC(=O)C23CC4CC(CC(C4)C2)C3)c1C#N" ) reads 2.8

Field inhibition (entry "CCOCCn1c(SCc2c(F)cccc2Cl)nc2c1c(=O)[nH]c(=O)n2C" ) reads 3.9

Field inhibition (entry O=C(NCC1CCCO1)C1CCCN(Cc2cnn(-c3ccccc3)c2-n2cccc2)C1 (stereo unspecified) ) reads 0.8

Field inhibition (entry "S=c1[nH]nc(-c2cccc(Br)c2)o1" ) reads 12.7

Field inhibition (entry COc1ccc(S(=O)(=O)NC(C)C(=O)Nc2cccc(C(C)=O)c2)cc1 (stereo unspecified) ) reads 2.4

Field inhibition (entry "CCOC(=O)Cn1c(=O)c(-c2ccccc2N)nc2ccccc21" ) reads -1.8

Field inhibition (entry "CCC(=O)Nc1ccc(-c2nnc(-c3ccccc3)o2)cc1" ) reads 1.6

Field inhibition (entry CCC(Sc1nc(-c2ccccc2)c(C#N)c(=O)[nH]1)C(=O)Nc1cc(C)on1 (stereo unspecified) ) reads 2.5

Field inhibition (entry "CN1CCN(Cc2nc3c(c(=O)[nH]c(=O)n3C)n2CCc2ccccc2)CC1" ) reads 7.4

Field inhibition (entry "COc1ccccc1NCN1C(=O)CCC1=O" ) reads 5.4

Field inhibition (entry "COc1ccc(CSc2nnc3n(C)c(=O)c4c5c(sc4n23)CCCC5)cc1" ) reads -1.3

Field inhibition (entry COc1ccc(OC)c(C2C(C#N)=C(N)Oc3cc(C)n(Cc4ccccn4)c(=O)c32)c1 (stereo unspecified) ) reads 3.4

Field inhibition (entry "CCn1c(SCC(=O)Nc2ccccc2C(=O)OC)nnc1-c1ccc(N)cc1" ) reads 2.4

Field inhibition (entry O=C1NC(Nc2ccccn2)(C(F)(F)F)C(=O)N1c1ccc(F)cc1 (stereo unspecified) ) reads -1.9

Data provenance: PubChem BioAssay
